# Tested system: Oxysterols receptor LXR-alpha (Homo sapiens) (UniProt Q13133)
# Assay text: Agonist activity at LXRalpha (unknown origin) expressed in human HepG2 cells co-expressing ABCA1 promoter measured after 48 hrs by cell-based transactivation assay
Endpoint: Emax
# do not omit the unit; it follows the number

Take a look at these entries with their results.
So what Emax did CN(C)C(=O)c1ccc(N2CCC(C3CCN(C(=O)[C@](O)(c4ccccc4)C(F)(F)F)CC3)CC2)cc1Cl get with Oxysterols receptor LXR-alpha (Homo sapiens) (UniProt Q13133)? 24%

So what Emax did CN(C)C(=O)c1ccc(-c2cnc(N3CCN(C(=O)OC(C)(C)C)CC3)c(C#N)c2)cc1Cl get with Oxysterols receptor LXR-alpha (Homo sapiens) (UniProt Q13133)? 40%

So what Emax did CN(C)C(=O)c1ccc(-c2cnc(N3CCN(C(=O)[C@](O)(c4ccccc4)C(F)(F)F)CC3)c(C#N)c2)cc1Cl get with Oxysterols receptor LXR-alpha (Homo sapiens) (UniProt Q13133)? 66%

Could you now consider this next compound?
So what Emax did CC(C)[C@](O)(C(=O)N1CCC(C2CCN(c3ccc(C(=O)N(C)C)c(Cl)c3)CC2)CC1)C(F)(F)F get with Oxysterols receptor LXR-alpha (Homo sapiens) (UniProt Q13133)? 31%

====

# Tested system: UniProt:Q13133
# Sequence (Q13133 whole entry): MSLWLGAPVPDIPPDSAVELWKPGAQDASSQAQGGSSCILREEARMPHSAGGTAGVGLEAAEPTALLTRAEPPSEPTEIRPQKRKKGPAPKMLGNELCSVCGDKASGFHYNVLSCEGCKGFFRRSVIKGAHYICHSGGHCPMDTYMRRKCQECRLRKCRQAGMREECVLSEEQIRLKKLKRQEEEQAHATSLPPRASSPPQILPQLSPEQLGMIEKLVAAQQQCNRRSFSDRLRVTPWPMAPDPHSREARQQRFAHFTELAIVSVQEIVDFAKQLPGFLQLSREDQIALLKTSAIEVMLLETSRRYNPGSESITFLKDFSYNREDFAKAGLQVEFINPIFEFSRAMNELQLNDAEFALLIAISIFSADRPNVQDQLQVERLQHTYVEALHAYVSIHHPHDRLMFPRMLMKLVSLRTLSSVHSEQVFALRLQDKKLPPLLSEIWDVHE
# Assay text: Partial agonist activity at LXRalpha (unknown origin) expressed in human HepG2 cells co-expressing ABCA1 promoter measured after 48 hrs by cell-based transactivation assay
Endpoint: EC50 (nM)
Write it as a number; the unit nM goes unstated.

Item CC(C)[C@@](O)(C(=O)N1CCC(C2CCN(c3ccc(C(=O)N(C)C)c(Cl)c3)CC2)CC1)C(F)(F)F has what recorded EC50? 830

====

# Assay text: Half life of compound in rat
# Assay type: ADME, organism-based
# Run parameters: in vivo
Endpoint: half-life (h)
Write it as a number; the unit h goes unstated.

Item CC(C)[C@@](O)(C(=O)N1CCC(C2CCN(c3ccc(C(=O)N(C)C)c(Cl)c3)CC2)CC1)C(F)(F)F has what recorded half-life? 2.9

====

# Assay text: Protein binding in rhesus monkey plasma
# Format: ADME, cell-free, Macaca mulatta
# Run parameters: read-out: PPB (converted)
Endpoint: fraction unbound
Enter a number only.

Item CC(C)[C@@](O)(C(=O)N1CCC(C2CCN(c3ccc(C(=O)N(C)C)c(Cl)c3)CC2)CC1)C(F)(F)F has what recorded fraction unbound? 0.007

====

Catalogue of EC50 readings, one per entry.
# Tested system: Oxysterols receptor LXR-beta (Homo sapiens)
# Sequence (P55055 whole entry, the tested form may be a part): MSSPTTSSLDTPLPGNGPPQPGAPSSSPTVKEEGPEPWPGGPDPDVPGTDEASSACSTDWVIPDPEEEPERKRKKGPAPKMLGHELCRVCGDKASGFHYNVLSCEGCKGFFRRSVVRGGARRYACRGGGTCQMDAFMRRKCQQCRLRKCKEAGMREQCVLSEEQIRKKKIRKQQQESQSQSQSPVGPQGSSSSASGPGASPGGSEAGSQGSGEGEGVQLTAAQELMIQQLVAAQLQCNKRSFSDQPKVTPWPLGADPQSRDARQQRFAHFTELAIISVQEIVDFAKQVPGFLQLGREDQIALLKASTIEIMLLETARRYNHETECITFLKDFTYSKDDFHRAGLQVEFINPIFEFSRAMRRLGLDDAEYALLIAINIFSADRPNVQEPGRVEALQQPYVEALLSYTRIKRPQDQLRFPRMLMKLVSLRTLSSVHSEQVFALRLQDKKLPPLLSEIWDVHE
# Assay text: Agonist activity at GST-tagged LXRbeta-LBD (unknown origin) by LanthaScreen TR-FRET liver X receptor coactivator assay
Write it as a number; the unit nM goes unstated.

So what EC50 did CC(C)[C@@](O)(C(=O)N1CCC(C2CCN(c3ccc(C(=O)N(C)C)c(Cl)c3)CC2)CC1)C(F)(F)F get with Oxysterols receptor LXR-beta (Homo sapiens)? 30

So what EC50 did CN(C)C(=O)c1ccc(-c2cnc(N3CCN(C(=O)[C@](O)(c4ccccc4)C(F)(F)F)CC3)c(C#N)c2)cc1Cl get with Oxysterols receptor LXR-beta (Homo sapiens)? 8

More entries:
So what EC50 did CN(C)C(=O)c1ccc(-c2cnc(N3CCN(C(=O)OC(C)(C)C)CC3)c(C#N)c2)cc1Cl get with Oxysterols receptor LXR-beta (Homo sapiens)? 940

====

Catalogue of solubility readings, one per entry.
# Assay text: Solubility of the compound at pH 2
# Format: physicochemical
# Run parameters: buffer
Write it as a number; the unit µM goes unstated.

Take a look at these entries with their results.
Item CC(C)[C@@](O)(C(=O)N1CCC(C2CCN(c3ccc(C(=O)N(C)C)c(Cl)c3)CC2)CC1)C(F)(F)F has what recorded solubility? 205

Item CN(C)C(=O)c1ccc(N2CCC(C3CCN(C(=O)[C@](O)(c4ccccc4)C(F)(F)F)CC3)CC2)cc1Cl has what recorded solubility? 197

Could you now consider this next compound?
Item CN(C)C(=O)c1ccc(-c2cnc(N3CCN(C(=O)[C@](O)(c4ccccc4)C(F)(F)F)CC3)c(C#N)c2)cc1Cl has what recorded solubility? 3

====

# Assay text: Apparent permeability of compound in MDCK cells
# Format: ADME, cell-based, Canis lupus familiaris
# Run parameters: dog
Endpoint: Papp (×10⁻⁶ cm/s)
Write it as a number; the unit ×10⁻⁶ cm/s goes unstated.

Item CC(C)[C@@](O)(C(=O)N1CCC(C2CCN(c3ccc(C(=O)N(C)C)c(Cl)c3)CC2)CC1)C(F)(F)F has what recorded Papp? 24
